Readings of TGI for the listed molecules
test system: KM12 colon; assay: NCI tumour cell line growth inhibition, 48 h
Where a SMILES comes first, the peptide text is derived from it. [ ]: non-standard residue; d: D form. The star is where a group is joined. Bn2Val = CC(C)[C@@H](C(=O)*)N(Cc1ccccc1)Cc1ccccc1; NH(4-F-benzyl) = Fc1ccc(CN*)cc1; NMeV = CN[C@H](C(=O)O)C(C)C; dNMeA = CN[C@H](C)C(=O)O

Consider the molecule shown here: CC1OC2=N[C@@H]1C(=O)N[C@@H](Cc1ccccc1)C1=N[C@H](C(=O)N[C@@H](Cc3ccccc3)C3=N[C@H](C(=O)N[C@H]2Cc2ccccc2)C(C)O3)C(C)O1 (stereo not given in full) What is its recorded TGI? > 100 µM

Any idea what its TGI is? The molecule is COc1cccc2c1C(=O)C1(O)CCCCC21 (stereo not given) > 100 µM

Need TGI, item CC1c2ccccc2Cn2cc3c(c21)C(=O)c1cccc(OP(=O)(O)OCc2ccccc2)c1C3=O (stereo not given) > 100 µM

Looking for the measured TGI of "c1ccc(N2CCN(CN3CCN(c4ccccc4)C3)C2)cc1" , can you help? > 100 µM

What measured TGI goes with NC(C(=O)O)c1cc(=O)[nH]o1 (stereo not given) ? > 100 µM

Quick check: TGI of "CSC(N)=Nc1cccc2ccccc12" ? > 10 µM

For the molecule "CCCCSC(=CC(=O)c1cccc(C(=O)C=C(SCCCC)SCCCC)n1)SCCCC" , what TGI is on record? > 100 µM

Which TGI value belongs to "N#CC1=C(Cl)NC(Cl)=C(C#N)C1c1ccc(Cl)cc1" ? 33 µM

Requested field: TGI. Item: CC(C)[C@H](NC(=O)[C@H](C(C)C)N(Cc1ccccc1)Cc1ccccc1)C(=O)N(C)[C@H](C(=O)N1CCC[C@H]1C(=O)N(C)[C@H](C)C(=O)NCc1ccc(F)cc1)C(C)C (Bn2Val-V[NMeV]P[dNMeA]-{NH(4-F-benzyl)}) > 100 µM
